Reference for the values: the supplement of paper PMC12645437

assayed_system: T1, CRBN, Q96SW2;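 further: pooled lentiviral library of zinc finger degron-EGFP fusions in mCherry-positive Jurkat cells, FACS-sorted after compound exposure, with degron abundance counted by next-generation sequencing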
T1 chain: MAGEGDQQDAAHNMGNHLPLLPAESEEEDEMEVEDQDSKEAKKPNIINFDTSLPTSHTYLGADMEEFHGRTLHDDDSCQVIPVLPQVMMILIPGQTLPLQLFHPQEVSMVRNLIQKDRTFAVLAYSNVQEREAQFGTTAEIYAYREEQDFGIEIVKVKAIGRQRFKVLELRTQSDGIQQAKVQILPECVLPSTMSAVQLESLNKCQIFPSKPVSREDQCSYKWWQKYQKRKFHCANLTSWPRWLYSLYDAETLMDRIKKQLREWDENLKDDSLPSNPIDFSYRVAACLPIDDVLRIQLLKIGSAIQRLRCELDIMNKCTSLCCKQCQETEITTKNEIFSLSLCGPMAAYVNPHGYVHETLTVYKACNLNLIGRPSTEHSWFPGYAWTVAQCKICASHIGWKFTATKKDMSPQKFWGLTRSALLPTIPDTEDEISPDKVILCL
assay_info: log2 fold change of degron read counts, EGFP-low vs EGFP+ sorted cells (limma voom), compound-induced degradation; higher = more compound-induced degradation of the degron-EGFP fusion; degrons are variants of IKZF1/3 zinc finger 2; compound dose not given here
conditions_used: Jurkat; 18 h; compound: compound 33 (diphenyl IMiD analogue)
In all, about 8,300 sequences were measured (“log2 fold change of degron read counts, EGFP-low vs EGFP+ sorted cells (limma voom), compound-induced degradation”: median about -1.1, highest 2% from about 3.2 on). The list comes from a sample in which the highest values are over-represented; it also holds close analogues and randomly drawn sequences.
// values below are reported log2 fold change of degron read counts

Some entries whose results are on file:
FECNQCGRDFTQKGNLLRHIKL [46F_47E_49N_50Q_52G_53R_54D_55F_67L_, Q9UKT9] : -3.13
FVCPICGATFTQKGNLLRHIKL [46F_47V_49P_50I_52G_53A_54T_55F_67L_, Q9UKT9] : 1.8
FCCPICGATFTQKGNLLRHIKL [46F_47C_49P_50I_52G_53A_54T_55F_67L_, Q9UKT9] : 2.36

Next up:
// log2 fold change of degron read counts value for FFCPICGATFTQKGNLLRHIKL [46F_47F_49P_50I_52G_53A_54T_55F_67L_, Q9UKT9] : 1.65
